Molecular target: Human immunodeficiency virus type 1 integrase (Human immunodeficiency virus 1, UniProt Q7ZJM1)
Sequence (Q7ZJM1 whole entry): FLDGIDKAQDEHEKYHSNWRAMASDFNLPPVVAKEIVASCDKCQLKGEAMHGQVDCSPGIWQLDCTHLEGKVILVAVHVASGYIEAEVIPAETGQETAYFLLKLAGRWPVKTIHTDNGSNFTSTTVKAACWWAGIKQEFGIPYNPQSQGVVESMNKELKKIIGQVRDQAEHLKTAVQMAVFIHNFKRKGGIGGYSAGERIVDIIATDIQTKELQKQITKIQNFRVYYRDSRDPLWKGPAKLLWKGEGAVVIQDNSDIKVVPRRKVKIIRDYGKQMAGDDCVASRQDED
Experiment: Inhibitory activity against HIV integrase in the strand transfer step
pIC50: −log10 of the molar value.
ASSAY_METRIC: pIC50

[
  {
    "MOLECULE": "Nc1ncnc2cc3c(cc12)ncn3C1CCC(COP(=O)(O)O)O1 (stereo not drawn)",
    "REPORTED_MEASUREMENT": 3.26
  },
  {
    "MOLECULE": "Nc1ncnc2c1ccc1ncn(C3COC(COP(=O)(O)O)C3)c12 (stereo not drawn)",
    "REPORTED_MEASUREMENT": 4.28
  },
  {
    "MOLECULE": "Nc1ncnc2cc3c(cc12)ncn3C1COC(COP(=O)(O)O)C1 (stereo not drawn)",
    "REPORTED_MEASUREMENT": 4.17
  }
]

###

List of IC50 values.
Target: Human immunodeficiency virus type 1 integrase (Human immunodeficiency virus 1)
Experiment: Inhibitory activity against HIV integrase in the 3' processing step

[
  {
    "COMPOUND": "Nc1ncnc2cc3c(cc12)ncn3C1CCC(COP(=O)(O)O)O1 (configuration not stated)",
    "IC50 (µM)": 750
  },
  {
    "COMPOUND": "Nc1ncnc2c1ccc1ncn(C3COC(COP(=O)(O)O)C3)c12 (configuration not stated)",
    "IC50 (µM)": 75
  }
]
